Where these numbers come from: patent US11591355B2

target: CD73 on U138 human neuroglioma cells (Homo sapiens, UniProt P21589); construct: U138 cells were obtained from ATCC and cultured in DMEM with 10% FBS; host or cells: U138 human neuroglioma cells; test: CD73 Cell-Based Assay; conditions: U138 cells, AMP substrate, 2 hours at 37° C., inorganic phosphate by malachite green
Sequence (P21589 27-549): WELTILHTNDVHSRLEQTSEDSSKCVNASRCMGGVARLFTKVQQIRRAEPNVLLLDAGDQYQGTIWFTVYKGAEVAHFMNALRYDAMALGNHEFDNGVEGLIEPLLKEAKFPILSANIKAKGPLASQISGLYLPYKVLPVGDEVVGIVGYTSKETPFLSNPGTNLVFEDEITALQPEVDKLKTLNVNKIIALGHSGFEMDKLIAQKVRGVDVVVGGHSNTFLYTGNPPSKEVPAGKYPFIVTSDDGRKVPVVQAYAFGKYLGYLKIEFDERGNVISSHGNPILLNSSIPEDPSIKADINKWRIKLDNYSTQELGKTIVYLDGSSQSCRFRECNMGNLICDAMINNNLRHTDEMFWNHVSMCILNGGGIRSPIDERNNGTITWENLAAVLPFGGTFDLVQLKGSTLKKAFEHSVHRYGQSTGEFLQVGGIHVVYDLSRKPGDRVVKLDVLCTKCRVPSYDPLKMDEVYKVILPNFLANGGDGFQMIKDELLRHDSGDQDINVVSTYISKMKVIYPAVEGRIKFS
Some compounds, each annotated with its measured IC50.

{"COMPOUND": "C[C@H](Nc1nc(Cl)nc2c1ccn2[C@@H]1O[C@H](COCP(=O)(O)O)[C@@H](O)[C@H]1O)c1ccc(F)cc1F [Compound 116]", "TEST_SYSTEM": "CD73 on U138 human neuroglioma cells (Homo sapiens, UniProt P21589)", "VALUE": "< 10 nM"}

Tell me IC50 of C[C@@H](Nc1nc(Cl)nc2c1ccn2[C@@H]1O[C@H](COCP(=O)(O)O)[C@@H](O)[C@H]1O)c1ccc(F)cc1 [Compound 69] when tested on CD73 on U138 human neuroglioma cells (Homo sapiens, UniProt P21589).
< 10 nM

Provide the reported IC50 (system: CD73 on U138 human neuroglioma cells (Homo sapiens, UniProt P21589)) for O=P(O)(O)COC[C@H]1O[C@@H](n2ccc3c(NC4CC5CC5C4)nc(Cl)nc32)[C@H](O)[C@@H]1O (stereo partly shown) [Compound 102]
< 10 nM

Using CD73 on U138 human neuroglioma cells (Homo sapiens, UniProt P21589) as the test system, report measured IC50 of O=P(O)(O)COC[C@H]1O[C@@H](n2ccc3c(C4CCCC4)nc(Cl)nc32)[C@H](O)[C@@H]1O [Compound 213] .
10 to 100 nM

System CD73 on U138 human neuroglioma cells (Homo sapiens, UniProt P21589). Read-out IC50. Item Cc1ccc([C@@H](C)Nc2nc(Cl)nc3c2ccn3[C@@H]2O[C@H](CS(=O)(=O)CP(=O)(O)O)[C@@H](O)[C@H]2O)cc1 [Compound 169] . Report value.
< 10 nM

Supply IC50 measured with CD73 on U138 human neuroglioma cells (Homo sapiens, UniProt P21589) for N#Cc1nc(N2CCOCC2)c2ccn([C@@H]3O[C@H](COCP(=O)(O)O)[C@@H](O)[C@H]3O)c2n1 [Compound 127] .
10 to 100 nM

Lab note: record IC50 of C[C@H](Nc1nc(C#N)nc2c1ccn2[C@@H]1O[C@H](COCP(=O)(O)O)[C@@H](O)[C@H]1O)c1ccc(C#N)cc1 [Compound 141] tested on CD73 on U138 human neuroglioma cells (Homo sapiens, UniProt P21589).
< 10 nM

Report value: IC50, system: CD73 on U138 human neuroglioma cells (Homo sapiens, UniProt P21589), compound: C[C@@H](c1ccccc1)N(C)c1nc(Cl)nc2c1ccn2[C@@H]1O[C@H](COCP(=O)(O)O)[C@@H](O)[C@H]1O [Compound 131]
< 10 nM

Lab note: record IC50 of N#Cc1nc(N2CCC(F)(F)CC2)c2ccn([C@@H]3O[C@H](COCP(=O)(O)O)[C@@H](O)[C@H]3O)c2n1 [Compound 129] tested on CD73 on U138 human neuroglioma cells (Homo sapiens, UniProt P21589).
10 to 100 nM

Recall the reported IC50 of C[C@@H](Nc1nc(C#N)nc2c1ccn2[C@@H]1O[C@H](COCP(=O)(O)O)[C@@H](O)[C@H]1O)c1ccc(C(F)(F)F)cc1 [Compound 115] when tested on CD73 on U138 human neuroglioma cells (Homo sapiens, UniProt P21589).
10 to 100 nM

Fill in: IC50 on CD73 on U138 human neuroglioma cells (Homo sapiens, UniProt P21589), entry C[C@H](c1ccccc1)N(C)c1nc(Cl)nc2c1ccn2[C@@H]1O[C@H](CS(=O)(=O)CP(=O)(O)O)[C@@H](O)[C@H]1O [Compound 157]
< 10 nM

Identify measured IC50 obtained with CD73 on U138 human neuroglioma cells (Homo sapiens, UniProt P21589) for C[C@H]1CCCN1c1nc(Cl)nc2c1ccn2[C@@H]1O[C@H](COCP(=O)(O)O)[C@@H](O)[C@H]1O [Compound 284] .
10 to 100 nM

Give the observed IC50 of CC(C)N(C)c1nc(Cl)nc2c1ccn2[C@@H]1O[C@H](CS(=O)(=O)CP(=O)(O)O)[C@@H](O)[C@H]1O [Compound 177] for CD73 on U138 human neuroglioma cells (Homo sapiens, UniProt P21589).
< 10 nM
